Reported kon values follow for various binders
# study_system: T1, native human ApoC3 (human, UniProt P02656 21-99)
# T1 construct: also called nhuApoC3; native huApoC3
# T1 sequence (P02656 21-99): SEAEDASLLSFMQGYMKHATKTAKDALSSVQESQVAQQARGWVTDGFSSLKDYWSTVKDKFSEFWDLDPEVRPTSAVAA
# method_summary: SPR, ApoC3 over captured IgG1, pH 5.5

# binder, kon [M⁻¹ s⁻¹]
records = [
    ("mAb9 (antibody, IgG1, V domains shown, Produced as full length IgG1 (kappa) in ExpiCHO-S cells; also called humanized anti-ApoC3 antibody mAb9) VH: QLVESGGGLVQPGGSLRLSCAASGFTFSTYSMRWVRQAPGKGLEWVSSIHTDAGGTAYRDSVKGRFTISRDNAKNTLYLQMNNLRAEDTAVYYCVIAGYSDWGQGTLVTVSS VL: DIVMTQSPLSLSVTPGEPASISCKTSQGLVHSDGKTYFYWFLQKPGQSPQQLIYQVSNRASGVPDRFSGSGSGTDFTLKISRVEAEDVGVYYCAHGTYYPHTFGQGTRLEIK", 86300),
    ("mAb11 (antibody, IgG1, V domains shown, Produced as full length IgG1 (kappa) in ExpiCHO-S cells; also called humanized anti-ApoC3 antibody mAb11) VH: QLVESGGGLVQPGGSLRLSCAASGFTFSTYSMRWVRQVPGKGLEWVSSIHTEGGGTAYRDSVKGRFTISRDNAKNTLYLQMNNLRAEDTAVYYCVIAGYSDWGQGTLVTVSS VL: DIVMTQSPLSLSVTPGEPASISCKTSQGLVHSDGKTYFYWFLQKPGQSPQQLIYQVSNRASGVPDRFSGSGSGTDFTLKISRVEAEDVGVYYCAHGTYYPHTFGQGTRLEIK", 80500),
    ("mAb19 (antibody, IgG1, V domains shown, Produced as full length IgG1 (kappa) in ExpiCHO-S cells; also called humanized anti-ApoC3 antibody mAb19) VH: QLVESGGGLVQPGGSLRLSCAASGFTFSTYSMRWVRQAPGKGLEWVSSIHTDAGGTAYRDSVKGRFTISRDNAKNTLYLQMNNLRPEDTAVYYCVIAGYSDWGQGTLVTVSS VL: DIVMTQSPGSLSVTPGEPASISCKTSQGLVHSGGKTYFYWFLQKPGQSPQQLIYQVSNRASGVPDRFTGSGSGTDFTLKISGVEAEDAGVYYCAQGTYYPHTFGQGTRLEIK", 127000),
    ("mAb6 (antibody, IgG1, V domains shown, Produced as full length IgG1 (kappa) in ExpiCHO-S cells; also called humanized anti-ApoC3 antibody mAb6) VH: QLVESGGGLVQPGGSLRLSCAASGFTFGTYSMRWVRQAPGKGLEWVSSIHTEGGGTAYRDSVKGRFTISRDNAKNTLYLQMNSLRAEDTAVYYCVIAGYSDWGQGTLVTVSS VL: DIVMTQSPLSLPVTPGESASISCKTSQGLVHSDGKTYFYWFLQKPGQSPQQLIYQVSNRASGVPDRFSGSGSGTDFTLKISRVKAEDAGVYYCAHGTYYPHTFGQGTRLEIK", 93100),
]
